Hello, the source for this data is patent US10626125B2, in case you need it.

What MAGL kinact/KI was measured for each of the following?
# SYSTEM_TESTED: human recombinant Monoacylglycerol Lipase (Homo sapiens)
# Sequence (Q99685 1-303): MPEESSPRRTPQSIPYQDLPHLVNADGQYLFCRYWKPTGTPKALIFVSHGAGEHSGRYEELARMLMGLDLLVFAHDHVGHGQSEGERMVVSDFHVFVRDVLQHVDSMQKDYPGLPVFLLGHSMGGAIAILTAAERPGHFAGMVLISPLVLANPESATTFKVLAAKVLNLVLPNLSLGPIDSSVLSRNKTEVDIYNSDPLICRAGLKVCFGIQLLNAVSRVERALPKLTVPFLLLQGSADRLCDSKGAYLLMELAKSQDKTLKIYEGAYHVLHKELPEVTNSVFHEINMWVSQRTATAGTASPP
# ASSAY_EXPLANATION: MAGL inactivation (kinact/KI from enzyme progress curves, T=0 min protocol)
# CONDITION_NOTES: from plot of Kobs vs. compound concentration, geometric mean of 2-5 determinations (b: ≥6)

Incoming: GET /values?readout=MAGL kinact/KI&item= O=C(O[C@H](CO)C(F)(F)F)N1CCC2(CC1)CC(n1cc(C3CC3)cn1)CO2 (mixture of isomers)
Outgoing: 9650 1/s per M

Incoming: For the compound shown here, Cc1cn(C2COC3(CCN(C(=O)O[C@H](CO)C(F)(F)F)CC3)C2)nc1C (single isomer, unassigned) , give the reported MAGL kinact/KI.
Outgoing: 26500 1/s per M

Incoming: Entry "CN(C(=O)C1CC(F)(F)C1)[C@H]1COC2(CCN(C(=O)O[C@H](CO)C(F)(F)F)CC2)C1" has what MAGL kinact/KI?
Outgoing: 1810 1/s per M

Incoming: Find the recorded MAGL kinact/KI belonging to O=C(O[C@H](CO)C(F)(F)F)N1CCC2(CC1)CC(c1ccc(F)cn1)CO2 (single isomer, unassigned) [Example 17] and report it.
Outgoing: 1390^b 1/s per M

Incoming: Recorded MAGL kinact/KI for "O=C(O[C@H](CO)C(F)(F)F)N1CCC2(CC1)CC(Oc1cc(C(F)F)ccn1)C2" , please?
Outgoing: 31900 1/s per M

Incoming: Quick one: MAGL kinact/KI for N#Cc1ccc(F)c(C2COC3(CCN(C(=O)O[C@H](CO)C(F)(F)F)CC3)C2)c1 (single isomer, unassigned) [Example 29] ?
Outgoing: 3250 1/s per M

Incoming: May I ask what MAGL kinact/KI has been recorded for N#Cc1ccc(C2COC3(CCN(C(=O)O[C@H](CO)C(F)(F)F)CC3)C2)c(F)c1 (single isomer, unassigned) ?
Outgoing: 17000 1/s per M

Incoming: May I ask what MAGL kinact/KI has been recorded for O=C(O[C@H](CO)C(F)(F)F)N1CCC2(CC1)CC(n1ncc3ccccc31)CO2 (single isomer, unassigned) ?
Outgoing: 18100 1/s per M

Incoming: What value of MAGL kinact/KI has been reported for the following compound? "Cc1nn(C2CC3(CCN(C(=O)O[C@H](CO)C(F)(F)F)CC3)C2)c(C)c1C"
Outgoing: 10600 1/s per M

Incoming: Would you kindly share the measured MAGL kinact/KI for "O=C(O[C@H](CO)C(F)(F)F)N1CCC2(CC1)CC(c1ccc(C(F)F)nc1)C2" ?
Outgoing: 19300 1/s per M

Incoming: Reported MAGL kinact/KI for O=C(O[C@H](CO)C(F)(F)F)N1CCC2(CC1)CC(c1ccc(F)cn1)CO2 (single isomer, unassigned) [Example 16] : what is it?
Outgoing: 5010^b 1/s per M

Incoming: Report MAGL kinact/KI for O=C(O[C@H](CO)C(F)(F)F)N1CCC2(CC1)CC(c1ccccc1F)CO2 (single isomer, unassigned) [Example 26] please.
Outgoing: 87700 1/s per M

Incoming: Sample N#Cc1ccc(F)c(C2COC3(CCN(C(=O)O[C@H](CO)C(F)(F)F)CC3)C2)c1 (single isomer, unassigned) [Example 30] — what was its MAGL kinact/KI?
Outgoing: 14400 1/s per M

Incoming: Requested read-out: MAGL kinact/KI. Entry: "CN([C@H]1COC2(CCN(C(=O)O[C@H](CO)C(F)(F)F)CC2)C1)S(=O)(=O)C(C)(C)C"
Outgoing: 6630^b 1/s per M

Incoming: Find the recorded MAGL kinact/KI belonging to "O=C(O[C@H](CO)C(F)(F)F)N1CCC2(CC1)CC(n1cccn1)C2" and report it.
Outgoing: 1420 1/s per M

Incoming: # query: MAGL kinact/KI of entry "CN(C1CC2(CCN(C(=O)O[C@H](CO)C(F)(F)F)CC2)C1)S(=O)(=O)C(C)(C)C"
Outgoing: 66900 1/s per M

Incoming: Endpoint output: MAGL kinact/KI of O=C(O[C@H](CO)C(F)(F)F)N1CCC2(CC1)CC(c1ccc(C(F)(F)F)cn1)CO2 (single isomer, unassigned) . Value?
Outgoing: 21800 1/s per M

Incoming: Query: MAGL kinact/KI; subject: "N#Cc1ccc(C2CC3(CCN(C(=O)O[C@H](CO)C(F)(F)F)CC3)C2)nc1"
Outgoing: 4000 1/s per M

Incoming: What value of measured MAGL kinact/KI is listed for O=C(O[C@H](CO)C(F)(F)F)N1CCC2(CC1)CC(n1cc(C(F)(F)F)cn1)CO2 (single isomer, unassigned) [Example 9] ?
Outgoing: 32800 1/s per M

Incoming: Return reported MAGL kinact/KI; argument: O=C(O[C@H](CO)C(F)(F)F)N1CCC2(CC1)CC(c1c(F)cccc1F)CO2 (single isomer, unassigned)
Outgoing: 233000 1/s per M
